Tested on: HT-29
Test Protocol: Antitumor activity against human HT-29 cells by SRB method
Assay type: functional, cell-based
Endpoint Name: IC50 (µM)

Compound: Nc1ccn([C@@H]2C(F)=C(CO)[C@@H](O)[C@H]2O)c(=O)n1 [RODUCITABINE]
Endpoint Result: 0.28

====

Tested on: HeLa
Test Protocol: Antitumor activity against human HeLa cells by SRB method
Assay type: functional, cell-based

Smiles Text: Nc1ccn([C@@H]2C(F)=C(CO)[C@@H](O)[C@H]2O)c(=O)n1
IC50: 1350 nM

====

System: NCI-H226
Test Protocol: Antitumor activity against human NCI-H226 cells by SRB method
Type: functional, cell-based
Endpoint Name: IC50 (µM)

Smiles Text: Nc1ccn([C@@H]2C(F)=C(CO)[C@@H](O)[C@H]2O)c(=O)n1
Endpoint Result: 0.25
